The values you see were collected from patent US9137992B2.

Test system: beet armyworm (Spodoptera exigua) larvae
PROTOCOL_DETAILS: Topical assay on beet armyworm larvae
Format: in vivo
TEST_SETTINGS: acetone solution, 1 microg/larva, six larvae, mortality at end of two-day period, 21° C., 60% RH
Quick reference: Beet Armyworm Mortality (%) of the listed items.
Report as a plain number; the unit % is understood.

COMPOUND	ENDPOINT_UNIT	Beet Armyworm Mortality (%)
CO[C@@H]1[C@@H](OC)[C@H](C)O[C@@H](O[C@H]2C[C@H]3[C@@H]4C=C5C(=O)[C@H](C)[C@@H](O[C@H]6CC[C@H](N(C)C)[C@@H](C)O6)CCC[C@@H](C6CCC6)OC(=O)C[C@H]5[C@@H]4C=C[C@@H]3C2)[C@@H]1OC [Compound 3, 21-desethyl-21-cyclobutyl spinosyn A]	%	83
CCC[C@H]1CCC[C@H](O[C@H]2CC[C@H](N(C)C)[C@@H](C)O2)[C@@H](C)C(=O)C2=C[C@@H]3[C@@H](C=C[C@@H]4C[C@@H](O[C@@H]5O[C@@H](C)[C@H](OC)[C@@H](OC)[C@H]5OC)C[C@@H]34)[C@@H]2CC(=O)O1 [Compound 23, 21-desethyl-21-n-propyl spinosyn A]	%	100

As a next step, examine the compound that follows.
Lab note: record Beet Armyworm Mortality (%) of CO[C@@H]1[C@@H](OC)[C@H](C)O[C@@H](O[C@@H]2C[C@H]3CC[C@@H]4[C@@H](C=C5C(=O)[C@H](C)[C@@H](O[C@H]6CC[C@H](N(C)C)[C@@H](C)O6)CCC[C@H](C6CCC6)OC(=O)C[C@H]54)[C@@H]3C2)[C@@H]1OC tested on beet armyworm (Spodoptera exigua) larvae.
83
